All figures here come from ChEMBL document CHEMBL1157539.

System: HepG2
test-description: GSK_TCMDC: Percent inhibition of human HepG2 cell line. Test compounds present at 10uM.
Format: functional
Item-by-item account of Inhibition

>  <compound>
Br.CCc1cccc(OCCCON2C(=N)N=C(N)NC2(C)C)c1

>  <Inhibition>
63%

$$$$
>  <compound>
COc1ccc(OCCCN2CCCCC2)cc1S(=O)(=O)c1ccc(OCc2ccc(C(F)(F)F)cc2)cc1.Cl

>  <Inhibition>
52%

$$$$
>  <compound>
Cc1ccc(NC(=O)C2CCC2)cc1-c1ccc(C(=O)NCC2CC2)cc1

>  <Inhibition>
13%

$$$$
>  <compound>
COc1ccc2nccc([C@@H](O)CN3CCC(NCc4ccc5c(c4)NC(=O)CS5)CC3)c2n1.O=C(O)C(=O)O

>  <Inhibition>
1%

$$$$
>  <compound>
CS(=O)(=O)NCCCNCc1cccc(-c2ccc(-c3nc4cc(C(F)(F)F)ccc4[nH]3)cc2)c1.O=C(O)C(F)(F)F

>  <Inhibition>
17%

$$$$
>  <compound>
Cc1cc(N[C@@H](Cc2ccccc2)C(=O)NCc2cccc(F)c2)nc(NCCCOC(C)C)n1.O=C(O)C(F)(F)F

>  <Inhibition>
10%

$$$$
>  <compound>
O=C(Nc1ccc2c(c1)CCN2C1CCN(Cc2cc(F)cc(F)c2F)C1)c1ccco1 (stereo not drawn)

>  <Inhibition>
0%

$$$$
>  <compound>
O=C(O)C(F)(F)F.O=S(=O)(NCCN1CCCC1)c1cccc(-c2ccc(CNC3Cc4ccccc4C3)cc2)c1

>  <Inhibition>
79%

$$$$
